- study_target: Angiotensin-converting enzyme (Oryctolagus cuniculus, UniProt P12822)
- Sequence (P12822 whole entry): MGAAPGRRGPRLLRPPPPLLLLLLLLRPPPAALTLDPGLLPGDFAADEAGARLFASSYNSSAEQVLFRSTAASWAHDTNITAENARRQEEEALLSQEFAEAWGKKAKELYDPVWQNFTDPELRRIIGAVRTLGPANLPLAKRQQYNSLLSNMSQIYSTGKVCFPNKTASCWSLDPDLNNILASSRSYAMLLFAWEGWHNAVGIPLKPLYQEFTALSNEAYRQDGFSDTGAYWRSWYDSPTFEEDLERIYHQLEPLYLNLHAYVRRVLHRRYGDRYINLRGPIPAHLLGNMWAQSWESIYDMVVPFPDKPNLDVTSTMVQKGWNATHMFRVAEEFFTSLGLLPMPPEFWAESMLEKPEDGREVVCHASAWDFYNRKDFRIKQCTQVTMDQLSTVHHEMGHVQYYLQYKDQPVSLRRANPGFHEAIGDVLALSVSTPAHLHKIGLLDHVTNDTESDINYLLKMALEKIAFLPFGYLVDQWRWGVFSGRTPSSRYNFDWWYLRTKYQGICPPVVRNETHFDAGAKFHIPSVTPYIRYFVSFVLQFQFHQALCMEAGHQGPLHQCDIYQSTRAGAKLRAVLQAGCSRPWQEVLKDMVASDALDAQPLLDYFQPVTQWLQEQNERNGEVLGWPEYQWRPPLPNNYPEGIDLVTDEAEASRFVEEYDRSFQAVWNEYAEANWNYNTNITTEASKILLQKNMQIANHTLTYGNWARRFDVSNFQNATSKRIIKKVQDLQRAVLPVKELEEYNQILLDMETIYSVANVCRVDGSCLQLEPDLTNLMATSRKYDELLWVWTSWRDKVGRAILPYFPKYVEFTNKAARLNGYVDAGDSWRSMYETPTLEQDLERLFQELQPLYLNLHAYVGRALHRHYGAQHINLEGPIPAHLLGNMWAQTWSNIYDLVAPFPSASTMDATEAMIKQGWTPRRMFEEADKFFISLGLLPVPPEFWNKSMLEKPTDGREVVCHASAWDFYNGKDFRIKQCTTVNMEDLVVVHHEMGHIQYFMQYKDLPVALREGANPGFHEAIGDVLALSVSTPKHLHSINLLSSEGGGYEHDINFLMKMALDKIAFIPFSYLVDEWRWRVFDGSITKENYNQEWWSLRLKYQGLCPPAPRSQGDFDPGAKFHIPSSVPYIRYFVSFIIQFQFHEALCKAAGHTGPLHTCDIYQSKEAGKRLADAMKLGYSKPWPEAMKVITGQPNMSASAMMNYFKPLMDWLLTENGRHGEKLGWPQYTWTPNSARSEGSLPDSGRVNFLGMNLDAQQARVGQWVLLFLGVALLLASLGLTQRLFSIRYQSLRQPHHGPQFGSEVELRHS
- experiment_summary: Inhibition of rabbit lung angiotensin I converting enzyme (ACE) using hippuryl-histidyl-leucine as substrate
- condition_set: read-out: I50
readout_type: IC50 (nM)

Examples with answers:
Lookup: Given the entry `NCCCC[C@H](OP(=O)(O)CCCCc1ccccc1)C(=O)N1C[C@H](O)C[C@H]1C(=O)O` , report its measured IC50.
Found: 140

Lookup: Thanks! And `CS[C@@H]1C[C@@H](C(=O)O)N(C(=O)[C@H](CCCCN)OP(=O)(O)CCCCc2ccccc2)C1` ?
Found: 9.3

Lookup: Thanks! And `NCCCC[C@H](OP(=O)(O)CCCCc1ccccc1)C(=O)N1C[C@@H](F)C[C@H]1C(=O)O` ?
Found: 160

A = CS[C@H]1C[C@@H](C(=O)O)N(C(=O)[C@H](CCCCN)OP(=O)(O)CCCCc2ccccc2)C1
B = NCCCC[C@H](OP(=O)(O)CCCCc1ccccc1)C(=O)N1COC[C@H]1C(=O)O
Lookup: Given the two records A and B , choose the one whose IC50 value is lower. Refer to your chosen item by its label in the answer.
Found: A
